Test system: COLO 205 colon
Experiment: NCI tumour cell line growth inhibition, 48 h
TGI overview
Quick note: give the figure in µM, leave out the unit.

>>> reported_value("N#CCCN(CCC#N)c1ccc(C(N=Nc2ccc(Cl)cc2)=Nc2ccc(Cl)cc2)cc1")
31.9
>>> reported_value("CCN(Cc1cccc(F)c1F)c1ccc(CO)c(Cl)c1")
7.59

Note: attention shifts to another entry.
Give the measured TGI for O=[N+]([O-])c1ccc(COc2cccc3cccnc23)cc1
33.5

----------
Tested on: MOLT-4 leukemia
Test: NCI tumour cell line growth inhibition, 48 h
Where a SMILES comes first, the peptide text is derived from it. The star is where a group is joined. Boc = CC(C)(C)OC(=O)*; OBn = c1ccc(CO*)cc1
TGI overview

Known TGI results, listed for orientation:
>>> reported_value("CCN(CC)CCC(=O)/C=C/c1ccc(C)cc1")
"38.2 µM"
>>> reported_value("CCOC(=O)c1nc2cc(C(F)(F)F)ccc2[n+]([O-])c1C")
"> 100 µM"
>>> reported_value("O=C1CSC(C(N=Nc2ccc(Cl)cc2)c2nc3ccccc3[nH]2)=N1 (stereo not drawn)")
"39.8 µM"
>>> reported_value("CC(C)CC(NC(=O)C(Cc1ccccc1)NC(=O)C(Cc1ccccc1)NC(=O)OC(C)(C)C)C(=O)OCc1ccccc1 (stereo not drawn) (Boc-Phe-Phe-Leu-OBn; configuration not given here)")
"> 100 µM"
>>> reported_value("Cc1ccc(C)c(COCCOCn2c(=O)[nH]c(=O)c3cc(Br)ccc32)c1")
"> 100 µM"
>>> reported_value("Cc1[nH]c(=O)nc(N(CCO)/N=C/c2ccc(Cl)cc2)c1C(=O)Nc1ccc(Cl)cc1")
"> 100 µM"
>>> reported_value("NC(C(=O)OC(=O)c1ccccc1)C(=O)OC(=O)c1ccccc1")
"> 100 µM"
>>> reported_value("COc1cc2c(cc1OC)[C@@H]([C@H](O)c1ccccc1)NCC2")
"> 100 µM"

Give the measured TGI for COc1ccc(/C=C2\CN(C)CC3C2=NN(c2ccccc2)C3c2ccc(OC)cc2)cc1 (stereo not drawn)
> 100 µM

Give the measured TGI for Nc1ncnc2nn(C3OC(CO)C(O)C3O)nc12 (stereo not drawn)
> 66.2 µM

Give the measured TGI for CSc1nc(N)c2c(n1)NC(c1ccccc1)C1CCc3ccccc3C1=N2 (stereo not drawn)
38.8 µM

Give the measured TGI for COc1cc2c(cc1O)C(c1cc(O)c(O)c(OC)c1)C(O)(C(=O)O)C(CO)C2O (stereo not drawn)
44.3 µM

Give the measured TGI for CN1C(=O)C(=CN(C)c2ccccc2)C(=O)N(C)C1=O
> 100 µM

Give the measured TGI for Cc1cc(C)c2c(=O)cc(-c3ccc4ccccc4c3)[nH]c2n1
12.9 µM

Give the measured TGI for CCCCS(=O)CC(CO)NC(=O)/C=C/c1c(C)[nH]c(=O)[nH]c1=O (stereo not drawn)
50 µM

Give the measured TGI for COC[C@@H](N=CN1CCc2cc(OC)c(OC)cc2C1)C(C)(C)C
> 100 µM

----------
Test system: SK-OV-3 ovarian
Test: NCI tumour cell line growth inhibition, 48 h
TGI overview

>>> reported_value("CC1CC(C(=O)OC2OC(COC3OC(CO)C(OC4OC(C)C(O)C(O)C4O)C(O)C3O)C(O)C(O)C2O)C2CCC3(C)C(=CCC4(C)C3CCC3C(C)(CO)C(O)C(O)CC34C)C2C1C (stereo not given)")
"> 100 µM"

Give the measured TGI for CCN(CC)c1ccc(/C=C/C=C(/C#N)C(N)=S)cc1
> 100 µM

Give the measured TGI for CC#CCCCC1(C)CCCNC1=S (stereo not given)
> 10 µM

Give the measured TGI for O=C(NC(=O)c1cc2cc(Br)cc(Br)c2oc1=O)Oc1ccccc1
> 100 µM

Give the measured TGI for Cc1cc(C)c2c(=O)cc(-c3ccc4ccccc4c3)[nH]c2n1
> 100 µM

----------
System: TK-10 renal
Experiment: NCI tumour cell line growth inhibition, 48 h
TGI overview
Quick note: give the figure in µM, leave out the unit.

>>> reported_value("Brc1ccc(C2SCc3nc4ccccc4n32)cc1 (centres undefined)")
29.1
>>> reported_value("Cc1cc(=O)c2ccccc2n1CCCCCCCCCCn1c(C)cc(=O)c2ccccc21")
30.2
>>> reported_value("CN(C)c1ccc(C(=C2C=CC(=[N+](C)C)C=C2)c2ccccc2Cl)cc1")
1.41
>>> reported_value("CCCCc1c2c(nc3c1CC/C(=C\\c1ccc([N+](=O)[O-])cc1)C3=O)CCCC2")
3.17
>>> reported_value("Cc1cn2c(/C=N/N=C(N)N)c(-c3ccsc3)nc2s1")
27.5
>>> reported_value("CN(C)c1ccc(/C=N/NC(=O)c2cccc3ccccc23)c(Cl)c1")
39.3
>>> reported_value("N=C(N)SCc1ccc(N=C=S)cc1")
28.1
>>> reported_value("N#CCCN(CCC#N)c1ccc(C(N=Nc2ccc(Cl)cc2)=Nc2ccc(Cl)cc2)cc1")
33.5
>>> reported_value("CN1CCN(c2ccc(C(=O)Nc3cccc(C#Cc4cccc5[nH]nc(N)c45)c3)cc2C(F)(F)F)CC1")
3.24
>>> reported_value("Oc1c2c(c(O)c3ccccc13)C1(N=N2)c2ccccc2Oc2ccccc21")
23

// fetch TGI; item: N=C(N)SCc1ccc([N+](=O)[O-])cc1[N+](=O)[O-] ; system: TK-10 renal
19.7

// fetch TGI; item: CC[C@H]1C=CCC[C@@]2(C[C@@H]3CC[C@@H]4[C@H](C(=O)OCCCCCCCCCCCCCCCC(=O)N(CCCNC(C)=O)C[C@H](CCNC(C)=O)OC(C)=O)[C@]5(CCC[C@@H](C)O5)NC(=[N+]34)N2)O1 ; system: TK-10 renal
2.07

----------
Tested on: HL-60(TB) leukemia
Assay: NCI tumour cell line growth inhibition, 48 h
measured.property: GI50

Known GI50 results, listed for orientation:
>>> reported_value("CC(=O)c1ccc2c(c1)N(CCCN(C)C)c1ccccc1S2")
"14 µM"
>>> reported_value("CC12CCC(O)CC1=CCC1C2CCC2(C)C(c3cccnc3)=CCC12 (stereo not drawn)")
"> 100 µM"

Note: attention shifts to another entry.
Give the measured GI50 for CCCCCSC1C2C(=O)C(Br)=CC13CCNc1c(O)c4c5c(c13)=[N+]2CCC=5C=N4 (stereo not drawn)
0.671 µM

----------
TGI overview
Test system: HS 578T breast
Test: NCI tumour cell line growth inhibition, 48 h

Known TGI results, listed for orientation:
>>> reported_value("NC(=S)N/N=C1\\CCCCC1C(O)(C(F)(F)Cl)C(F)(F)Cl (stereo not given)")
"> 10 µM"
>>> reported_value("CCOC(=O)c1nc2cc(C(F)(F)F)ccc2[n+]([O-])c1C")
"> 100 µM"
>>> reported_value("COC(=O)/C(=C\\c1c(-c2ccccc2)[nH]c2ccccc12)S(C)(=O)=O")
"> 100 µM"
>>> reported_value("Nc1cc2nc3ccccc3oc-2cc1=O")
"5.52 µM"
>>> reported_value("CC(=O)OC(=C(C#N)C#N)c1nccnc1C(C)=O")
"> 20 µM"

Give the measured TGI for CC#CCCCC1(C)CCCNC1=S (stereo not given)
> 10 µM

Give the measured TGI for CCOC(=O)N1N(c2ccccc2)C(=O)C1(c1ccccc1)c1ccccc1
> 100 µM

Give the measured TGI for CCN(CC)CCNC(=O)c1nn(-c2ccc(Cl)cc2)c2c1CCc1cc(OC)ccc1-2
13.8 µM

Give the measured TGI for COc1cc2cc(C(=O)N3CC(CCl)c4c3cc(O)c3ccccc43)[nH]c2c(OC)c1OC (stereo not given)
< 0.005 µM

Give the measured TGI for O=C(Nc1cccc(-n2cc(-c3ccncc3)c(-c3ccc(O)c(Cl)c3)n2)c1)c1ccc(Cl)c(Cl)c1
> 100 µM

Give the measured TGI for CC(=O)OC1[C@H](n2ccnc2)C[C@H]2[C@@H]3CC=C4CC(N5CCCC5)CC[C@]4(C)[C@H]3CC[C@]12C (stereo not given in full)
> 100 µM

Give the measured TGI for CC(=O)C1=C(C)N(c2ccccc2)C2(O)C=CC(=O)C3=C(O)c4ccccc4C(=O)C312 (stereo not given)
> 100 µM

Give the measured TGI for O=Nc1c(O)c2ccccc2c2ccccc12
5.65 µM

Give the measured TGI for O=[N+]([O-])c1ccc(O)c(C=NCC2CCCN3CCCCC23)c1 (stereo not given)
46.6 µM

----------
Tested on: A498 renal
Assay: NCI tumour cell line growth inhibition, 48 h
log10 of TGI overview
Could you please treat all values as log10 of TGI in µM?

Known log10 of TGI results, listed for orientation:
>>> reported_value("CN(C)/C=C/c1c2c(nc3ccccc13)C(=O)c1ccccc1C2=O")
0.97
>>> reported_value("O=C(Sc1sc(=S)sc1SC(=O)c1ccccc1)c1ccccc1")
1.89
>>> reported_value("CCOC(=O)C1=C(C)NC(C)=C(C(=O)OCC)C1c1ccc(C)cc1")
1.99
>>> reported_value("CCn1c(=O)c2c3cc(OC(C)=O)ccc3oc2c2ccc(OC(C)=O)cc21")
1.92

Note: attention shifts to another entry.
Give the measured log10 of TGI for COC(=O)c1ccc(C)cc1CC1Cc2c(C)cccc2C1=O (stereo unspecified)
1.38
